assay: Cytotoxicity against mouse RAW264.7 cells assessed as cell viability at 20 uM incubated for 24 hrs by CCK8 assay relative to control; type: toxicity, cell-based; settings: read-out: Activity
metric: viability at 24 h, 20 µM (%)

C=C(C(=O)OC)[C@@H]1CC[C@@](C)(O)C(=O)CC/C(C)=C/CC[C@]2(C)O[C@H]2C1 : 116
C=C1C(=O)O[C@]2(C)CC[C@@H]1C[C@H](OC(C)=O)[C@@]1(C)CC[C@H](O1)C(=C)CC[C@H]2OC(C)=O [GRANOSOLIDE B] : 102
C=C1C(=O)O[C@]2(C)CC[C@@H]1C[C@H](O)[C@@]1(C)CC[C@H](OC(C)=O)[C@@](C)(CCC2=O)O1 [QUERCIFORMOLIDE A] : 94.1
C=C1C(=O)O[C@]2(C)CC[C@@H]1C[C@@H]1O[C@@]1(C)C/C=C/[C@@](C)(O)CC[C@H]2OC(C)=O : 87.9
C=C(C(=O)OC)[C@@H]1CC[C@@]2(C)O[C@@H]2CC[C@](C)(O)/C=C/C[C@]2(C)O[C@H]2C1 : 108
C=C1C(=O)O[C@]2(C)CC[C@@H]1C[C@H](O)[C@@]1(C)CC/C=C(/CCC2=O)COO1 : 94.5
C=C1C(=O)O[C@]2(C)CC[C@@H]1C[C@@H]1O[C@@]1(C)CC/C=C(\C)CC[C@@H]2O [SINULARIOLIDE] : 83.3

* * *

// reported viability at 24 h, 20 µM per item
test: Cytotoxicity against mouse RAW264.7 cells assessed as cell viability at 20 uM incubated for 24 hrs by CCK8 assay relative to control; type: toxicity, cell-based; settings: read-out: Activity
metric: viability at 24 h, 20 µM (%)

CNC(=N)NCCC[C@H](N)C(=O)O : 92.7
C=C(C(=O)OC)[C@@H]1CC[C@]2(C)O[C@H]2CC[C@](C)(OO)/C=C/C[C@]2(C)O[C@@H]2C1 : 87.4
C=C(C(=O)OC)[C@@H]1CC[C@@](C)(O)C(=O)CC[C@](C)(O)/C=C/C[C@]2(C)O[C@H]2C1 : 98.1
C=C1C(=O)O[C@]2(C)CC[C@@H]1C[C@@H]1O[C@@]1(C)C/C=C/[C@@](C)(OO)CCC2=O : 93.7
C=C1CO[C@]2(C)CC[C@@H]1C[C@]1(O)O[C@@]1(C)CC/C=C(\C)CC[C@@H]2O : 82.3
C=C1C(=O)O[C@]2(C)CC[C@@H]1C[C@H](OC(C)=O)[C@@]1(C)CC[C@H](O1)[C@](C)(O)CC[C@H]2O : 109
C=C1C(=O)O[C@]2(C)CC[C@@H]1C[C@@H]1O[C@@]1(C)CC/C=C(\C)CC[C@H]2O : 92.8
C=C1C(=O)O[C@]2(C)CC[C@@H]1C[C@H](O)[C@@]1(C)CC[C@H](O1)C(=C)CC[C@H]2OC(C)=O [GRANOSOLIDE A] : 88.7
C=C1C(=O)O[C@]2(C)CC[C@@H]1C/C=C(\C)CC/C=C(\C)CC[C@@H]2O : 93.7

* * *

// reported viability at 24 h, 20 µM per item
assay: Cytotoxicity against mouse RAW264.7 cells assessed as cell viability at 20 uM incubated for 24 hrs by CCK8 assay relative to control; assay type: toxicity, cell-based; conditions: read-out: Activity
metric: viability at 24 h, 20 µM

C=C(C(=O)OC)[C@@H]1C/C=C(/C)[C@@H](O)CC/C(C)=C/CC[C@]2(C)O[C@H]2C1 : 93.7%
C=C(C(=O)OC)[C@@H]1CC[C@]2(C)O[C@@]2(O)CC/C(C)=C/CC[C@]2(C)O[C@@H]2C1 : 94%
C=C1C(=O)O[C@]2(C)CC[C@@H]1C[C@H](O)[C@@]1(C)CC[C@H](O1)C(=C)CC[C@H]2O : 89%
C=C1C(=O)O[C@]2(C)CC[C@@H]1C[C@H](O)[C@@]1(C)CC[C@H](O1)C(=C)CCC2=O : 89.5%
